# assayed_system: T1, hu-IL-2Rγc subunit (human, UniProt P31785 23-262, limits assumed)
# T1 construct: also called human interleukin-2 receptor subunit γ; CD132
# T1 sequence (looked up): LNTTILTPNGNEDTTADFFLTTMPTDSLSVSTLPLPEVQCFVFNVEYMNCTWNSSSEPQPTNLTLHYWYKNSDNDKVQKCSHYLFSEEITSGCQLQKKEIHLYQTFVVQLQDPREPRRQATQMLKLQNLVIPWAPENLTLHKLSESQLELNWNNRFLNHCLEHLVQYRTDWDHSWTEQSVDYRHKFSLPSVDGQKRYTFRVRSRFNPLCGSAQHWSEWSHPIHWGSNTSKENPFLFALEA
# protocol: phage ELISA competition assay
Listing: IC50 of selected binders
readout_kind: IC50

* LALRKEVVCQEYYGVELCWI [SEQ ID NO 641] | < 10 µM
* WSKKAEVVCEEWGGVEFCWI [SEQ ID NO 672] | < 10 µM
* ILCEEWQGVELCWLEGGGS [SEQ ID NO 714] | < 10 µM
* RLLNSVVECLDWEGVELCWQ [SEQ ID NO 659] | < 10 µM
* IECEEWAGVELCWL [SEQ ID NO 667] | < 10 µM
* VVCQEWEGVELCWC [SEQ ID NO 661] | < 10 µM
* RTGVECQDWHGVELCWPVWE [SEQ ID NO 711] | < 10 µM

Source listed as patent US20240101959A1.
